# ASSAY_TARGET: GSK3α (GST-full length GSK3α) (Homo sapiens (Human))
# Sequence (P49840 whole entry): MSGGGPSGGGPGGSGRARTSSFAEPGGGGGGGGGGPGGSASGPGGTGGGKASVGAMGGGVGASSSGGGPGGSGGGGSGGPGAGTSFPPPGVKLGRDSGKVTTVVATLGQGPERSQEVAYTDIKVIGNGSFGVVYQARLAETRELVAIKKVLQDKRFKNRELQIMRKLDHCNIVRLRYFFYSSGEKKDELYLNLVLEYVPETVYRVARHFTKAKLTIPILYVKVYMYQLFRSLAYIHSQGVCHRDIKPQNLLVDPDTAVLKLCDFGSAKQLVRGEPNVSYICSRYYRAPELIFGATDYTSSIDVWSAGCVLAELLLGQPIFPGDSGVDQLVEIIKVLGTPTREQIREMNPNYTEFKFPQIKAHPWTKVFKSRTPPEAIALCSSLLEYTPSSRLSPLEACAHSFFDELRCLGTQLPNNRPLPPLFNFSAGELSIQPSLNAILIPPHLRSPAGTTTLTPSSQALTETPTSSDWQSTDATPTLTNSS
# TEST_NAME: GSK3α TR-FRET kinase assay
# Assay type: biochemical
# SETTINGS: read-out: GSK3-A (TR-FRET 1 mM ATP); GMean; IC50; 1 mM ATP; geometric mean
The entries below come with measured IC50 values attached.

# COMPOUND, ASSAY_TARGET, IC50
measured = [
    ("CCC1(c2cccc(-c3ccncc3C)c2)C2=C(CC(C)(C)NC2=O)Nc2n[nH]c(C(F)(F)F)c21 (stereo not shown) [Compound 947814]", "GSK3α (GST-full length GSK3α) (Homo sapiens (Human))", "≤ 100 nM"),
    ("CC(C)(C)Cc1[nH]nc2c1C1(CN(S(=O)(=O)CC3CC3)C1)C1=C(CC3(CCC3)CC1=O)N2", "GSK3α (GST-full length GSK3α) (Homo sapiens (Human))", "1000 to 5000 nM"),
    ("CC[C@]1(c2cccc(-c3ccncc3C)c2)C2=C(CC(C)(C)CC2=O)Nc2n[nH]cc21", "GSK3α (GST-full length GSK3α) (Homo sapiens (Human))", "≤ 100 nM"),
    ("CC[C@@]1(c2cccc(C(F)(F)F)c2)C2=C(CC3(CCCC3)CC2=O)Nc2n[nH]cc21", "GSK3α (GST-full length GSK3α) (Homo sapiens (Human))", "≤ 100 nM"),
    ("CC[C@@]1(c2cccc(-c3c(F)cncc3OC)c2)C2=C(CC(C)(C)CC2=O)Nc2n[nH]cc21", "GSK3α (GST-full length GSK3α) (Homo sapiens (Human))", "≤ 100 nM"),
    ("CCC1(c2cccc(S(C)(=O)=O)c2)C2=C(CC(C)(C)CC2=O)Nc2n[nH]cc21 (stereo not shown)", "GSK3α (GST-full length GSK3α) (Homo sapiens (Human))", "≤ 100 nM"),
    ("CCC1(c2cccc(C(F)(F)F)c2)C2=C(CCN(c3ccccn3)C2=O)Nc2n[nH]cc21 (stereo not shown)", "GSK3α (GST-full length GSK3α) (Homo sapiens (Human))", "100 to 1000 nM"),
]

====

The entries below come with measured IC50 values attached.
# ASSAY_TARGET: UniProt P49840
# TEST_NAME: GSK3α TR-FRET kinase assay
# Format: biochemical
# SETTINGS: 1 nM GSK3α, 4 μM ATP, 30 minute preincubation, Table 16; read-out: GSK3-A TR-FRET BIOCHEMICAL (TR-FRET)
PROPERTY_LABEL: IC50

# COMPOUND, RESULT
data = [
    ("CO[C@H]1CC[C@@]2(CC1)C1=C(CC(C)(C)CC1=O)Nc1n[nH]cc12 [Compound 884120]", "0.1 to 1 µM"),
    ("CC1(C)CC(=O)C2=C(C1)Nc1n[nH]cc1[C@]21CO[C@@H](C2CC2)C1 (stereo in doubt) [Compound 913185]", "0.1 to 1 µM"),
    ("CCC1(c2cccc(-c3ccnc4c3CCC4)c2)C2=C(CC(C)(C)CC2=O)Nc2n[nH]cc21 (stereo not shown) [Compound 943534]", "≤ 0.1 µM"),
    ("CC1(C)CC(=O)C2=C(C1)Nc1n[nH]cc1C21CCC1 [Compound 874509]", "0.1 to 1 µM"),
]
